- assay_target: Low Density Lipoprotein Receptor (LDLR), recombinant (UniProt P01130 22-788)
- experimental_details: SPR; HBS + 0.005% P20, peptide
Kd under 2000 nM gets 1, anything at or over 2000 nM gets -1.

Task: Here's an entry: T-112 (peptide) peptide: YKDFGERVERALGRQLEMLGQSTEELRVRLASHLRKLRKRLLRDADDLQKRLAVYQA . Is its Kd below 2000 nM?
Result: 1

Task: Same for HLRKLRKRLLRSLVSQYRQTVTDYGKDL [T-110]
Result: -1

Further cases:
Task: Here's an entry: EELRVRLASHLRKLRKRLLR [T-074] . Is its Kd below 2000 nM?
Result: -1

Task: Same for RSGADALESALKELKRFIREWT [T-101]
Result: -1

Task: Same for HLRKLVKRLLRSLVSQYRQTVTDYGEDL [T-111]
Result: -1

Task: Same for T-118 (peptide) peptide: LVARLLKELTAAMARLGRDAEDIRGNLFQYFDEVWAMLGQSTEELRVRLASHLRKLRKRLLRDADDLQKRLAVYQA
Result: 1

Task: Same for T-120 (peptide) peptide: DVKRLLKELTEAMAELARKAEDIRGNLDQYFRKVFAMLGQSTEELRVRLASHLRKLRKRLLRDADDLQKRLAVYQA
Result: 1

Task: Same for HLRKLRKRLLRSLVSQYFQTVTDYGKDL [T-109]
Result: -1

Task: Same for T-113 (peptide) peptide: WKDFGERVERALREQFEDLGQSTEELRVRLASHLRKLRKRLLRDADDLQKRLAVYQA
Result: 1

Task: Same for DAWERFRALFKELADYFR [T-087]
Result: -1

Task: Same for T-116 (peptide) peptide: DAWERFRALFKELADYFRLGQSTEELRVRLASHLRKLRKRLLRDADDLQKRLAVYQA
Result: -1
